experiment: Pull-down of liposomes (50 mol % PA, 50 mol % PC) on immobilized GST-mce domains; assay type: binding; conditions: 50 mol % PA and 50 mol % PC, molybdophosphoric acid assay
metric: binding of liposomes to immobilized GST-mce proteins

Before answering, review these 6 worked examples.
mce 3: GST-tagged individual mce domain 3 of V. parahaemolyticus MAM7 (SEQ ID NO: 7) (protein, listed as Vibrio parahaemolyticus, GST tag) RGIAIKIALPDDNKVSSEGAPIMYRGIEIGQVTDLSLSEGREVILASAAIQPAFSDMLTTGTRFVLEEAKVSLSGVENIANLVRGNFLTIVPG    strong binding
mce 5: GST-tagged individual mce domain 5 of V. parahaemolyticus MAM7 (SEQ ID NO: 9) (protein, listed as Vibrio parahaemolyticus, GST tag) GSKTLMLFASELPPISKGSPLLYRNLPVGNVSDFHLVDGGVLIKATIENRFAYLVTPQTVFWNRSGIEIDASLSGVSVKAHPLKSLIEG    weaker binding
mce 2: GST-tagged individual mce domain 2 of V. parahaemolyticus MAM7 (SEQ ID NO: 6) (protein, listed as Vibrio parahaemolyticus, GST tag) QGLNIKLKSRDLGGVSIGSQIVYKKIPIGAVYSYQLDEDAKSITIQANIQEQYRHIINDRSRFWNVSGIGASIGFEGVDVRLESMSALLGG    strong binding
mce 6: GST-tagged individual mce domain 6 of V. parahaemolyticus MAM7 (SEQ ID NO: 10) (protein, listed as Vibrio parahaemolyticus, GST tag) FGRVISLETDGTQEVLKGMPIEYQGVKVGEVTLVVPNFRRNLVEVTARILPEYVENIAVEGTHFWLTEPEIGLGGVKNLGALVSKSISVEPG    weaker binding
mce 4: GST-tagged individual mce domain 4 of V. parahaemolyticus MAM7 (SEQ ID NO: 8) (protein, listed as Vibrio parahaemolyticus, GST tag) SIAIRLISDNSFGLDSGANVLYKGIVVGSIINVGLVDEKKQTKHEVFMDVLIDHEYKHLIKSNNRFYVTGSASAELTESGLSVTVP    strong binding
mce 1: GST-tagged individual mce domain 1 of V. parahaemolyticus MAM7 (SEQ ID NO: 5) (protein, listed as Vibrio parahaemolyticus, GST tag) AGQRVQIYFSDAAGLVAGRTTIRYQGLEVGMVRDINLSEDLGSIYVDADIYPEATKLLNDKTRFWLVKPTASLTGVSGLDALVSGNYISIQPG    strong binding

# ---- query molecule ----
For record mce 7: GST-tagged individual mce domain 7 of V. parahaemolyticus MAM7 (SEQ ID NO: 11) (protein, listed as Vibrio parahaemolyticus, GST tag) EGVMFTLQSEQRGSVQVGTPVLYRQMEVGQVTDVRLGEFADRVVSTIKIKPEYAYLVRQNSVFWNVSGVDVSIGITGANIKAGTIDSLVRG the listed binding of liposomes to immobilized GST-mce proteins is strong binding

The reported numbers originate from patent US9529005B2.
